Values were extracted from patent US20130078247A1.

test target: recombinant human DLL4 (human, UniProt Q9NR61 25-522)
Sequence (Q9NR61 25-522): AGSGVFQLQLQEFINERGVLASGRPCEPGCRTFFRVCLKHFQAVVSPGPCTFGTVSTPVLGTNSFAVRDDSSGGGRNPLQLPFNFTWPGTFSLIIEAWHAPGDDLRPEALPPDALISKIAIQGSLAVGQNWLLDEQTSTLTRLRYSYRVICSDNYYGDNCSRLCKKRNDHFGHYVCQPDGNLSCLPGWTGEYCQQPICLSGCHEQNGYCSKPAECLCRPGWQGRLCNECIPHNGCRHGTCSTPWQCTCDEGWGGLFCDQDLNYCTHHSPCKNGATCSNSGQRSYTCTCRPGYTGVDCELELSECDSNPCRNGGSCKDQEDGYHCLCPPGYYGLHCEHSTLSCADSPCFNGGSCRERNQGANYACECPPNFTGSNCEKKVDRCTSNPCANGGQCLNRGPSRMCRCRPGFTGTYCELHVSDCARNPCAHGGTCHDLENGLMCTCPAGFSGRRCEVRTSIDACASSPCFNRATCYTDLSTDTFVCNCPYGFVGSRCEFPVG
test description: cell-based or functional assay
quantity measured: IC50 (nM) in the DLL4 proliferation assay (HUVEC, experiment 1)
# value in nM; strip the unit string

DLLBII115A05 (VHH, also called 115A5; DLLBII115A5; not shown: C-terminal c-myc tag and His6 tag) VHH: EVQLVESGGGLVQPGGSLRLSCAASGFTFGSYDMSWVRRSPGKGPEWVSSINSGGGSTYYADFVKGRFTISRDNAKNTLYLQMNSLKPEDTAVYYCAADRYIRARQGDYWGAYEYDYWGQGTQVTVSS
10000
DLLBII101G08 (VHH, also called 101G8; DLLBII101G8; not shown: C-terminal c-myc tag and His6 tag) VHH: EVQLVESGGGLVQAGGSLRLSCAASGRTFSSYAMAWFRQAPGKEREFVAAIRWSGGTAYYADSVQGRFTISRDNAKNTVYLQMNSLKPEDTAVYYCANRAADTRLGPYEYDYWGQGTQVTVSS
401
DLLBII104G01 (VHH, also called 104G1; not shown: C-terminal c-myc tag and His6 tag) VHH: EVQLVESGGGLVQAGGSLRLSCAASGFTFDDYAIGWFRQAPGKEREGVSCISSSDGSTYYADSVKGRFTISSDNAKNTVYLQMNSLKPEDTAVYYCATAWCDSSWYRSFVGYWGQGTQVTVSS
103

Next binder, IC50 (nM) in the DLL4 proliferation assay (HUVEC, experiment 1) to be filled in.
Quick note, IC50 (nM) in the DLL4 proliferation assay (HUVEC, experiment 1) for DLLBII56A09 (VHH, not shown: small tags and cut ends) VHH: EVQLVESGGGLVQPGGSLRLSCAASGFTFDDYAIGWFRQAPGKEPEGISCISSSGGITYYADSVKGRFTTSRDNAKNTVYLQMNSLKPEDTAVYYCATPGIAACRGIHYTGQGTQVTVSS landed at 11
